Species on record: Rattus norvegicus
Experiment: cells
Conditions: Brain, 3 h
Description: Concentration of compound to inhibit 50% of [3H]norepinephrine neurotransmitter uptake in rat brain
MEASUREMENT KIND: pIC50
Conceptually, pIC50 converts a concentration in mol/L into minus its log10.

Provide one value: measured pIC50 of "CN(C)CCCN1c2ccccc2CCc2ccccc21"
6.77

* * *

Species: Rattus norvegicus
MEASUREMENT KIND: IC50 (µM)
Answer format: numeric, µM implied, no suffix.

Dear colleague, please send me the reported IC50 for CN1CCC2c3cccc4c3N(CC2C1)c1ccccc1CC4 (trans isomer) when you can.
14.2

Cited source: ChEMBL document CHEMBL1121635
